- Test system: MS2 coat protein
- assay-remarks: apparent KD of MS2 coat protein; designed switch direction (-1 OFF switch, 1 ON switch): 1; higher = weaker reporter binding
- conditions: input ligand: microRNA oligo, concentration not stated
quantity-name: apparent KD of MS2 coat protein (nM)
Respond numerically; units are nM and should not be typed.

Check out these entries, answers already filled in.
# sequence-content, system-under-test, apparent KD of MS2 coat protein, nM
measured = [
    ("GCUCGCGGCGCAGGAUAUGGGUGCCUGUACAUGAGGAUCACCCAUGUUAAGGGACGGAAAACGAACCAGAAGGGCGUCGCAAGC [Zaorquor] (Eterna round: R96, puzzle: Same State NG 2)", "MS2 coat protein", 167),
    ("GUUACAUGAGGAUCACCCAUGUAUGUGUGGGAGUAAGUGUCUUAGGAUAUCUGUUAUUUAGUUUAAGAGAAGGAAGAUUGUUGU [JMF's solution 41] (Eterna round: R96, puzzle: Same State NG 3)", "MS2 coat protein", 80.9),
    ("GGUCGGAACCACAUGAGGAUCACCCAUGUUCCGGAAACGGUACAGGAUAUCUGUCCGAAAAGGUCAGAGAAGGGUGAACCGACC [Fiskers NG3ss - 77] (Eterna round: R96, puzzle: Same State NG 3)", "MS2 coat protein", 349),
]

Would you kindly look at the next entry?
apparent KD of MS2 coat protein recorded for this sequence, UUGAAGAAUUAAGGAUAUUGAAUACAUAUGUUUAACAUGAGGAUCACCCAUGUGGGUUGCGGUGUCGAGAAGGUAAAAUAAUAG [Mat - same State NG 2 - JL mod - D95] (Eterna round: R96, puzzle: Same State NG 2) , is 124

---

- System: MS2 coat protein
- assay-remarks: apparent KD of MS2 coat protein, switch OFF state (with FMN for OFF switches, without FMN for ON switches); designed switch direction (-1 OFF switch, 1 ON switch): 1; higher = weaker reporter binding
- conditions: FMN input: 0 or 200 uM; Eterna round: R93 (includes R88 designs)
quantity-name: apparent KD of MS2 coat protein
Give the value; after it, write the unit.

# sequence-content, system-under-test, apparent KD of MS2 coat protein
data = [
    ("AAAUAAAUAAGAGAGGAUAUGUCAGAGAAAACAUGAGGAUCACCCAUGUGAUAAUAAAAAGGGUGACAGAAGGCUCAAAACAAAC [Topaz 52]", "MS2 coat protein", "59.3 nM"),
    ("GAAAAACAUGAGGAUCACCCAUGUAGAAAUAUGGGAGGAUAUACGAACUCGAAAGUCAAAGUAGAAGGCCUAAAAG [Garnet 30]", "MS2 coat protein", "130 nM"),
]

# apparent KD of MS2 coat protein of UACAGACAUGAGGAUCACCCAUGUAGAAUUAUGGGAGGAUAUACAAAGACGAGAGUCAGAGUAGAAGGCCUAGGAA [salish99-ss1-164] = 64.6 nM

The value of apparent KD of MS2 coat protein measured for the sequence GGAGCCGGCACUGAGGAUAUUCAUAUUAAAACAUGAGGAUCACCCAUGUAGGCCAGAAGGCCUUGGGAGAAGGCAGGUCGGCCCG [Bibimaor] turned out to be 252 nM

AUAUGAGCUAUGGAGGAUAUCCAUAAUAAAACAUGAGGAUCACCCAUGUAAGAAAGAAAAGAAUGGGAGAAGGCCAUAGCUCAAU [SS 2 M44] yielded apparent KD of MS2 coat protein of 13.1 nM

Record AUAAAACAUGAGGAUCACCCAUGUAGAAAUAUGGGAGGAUAUACAAAGACGAAAGUCAAGGUAGAAGGCCUAAAAG [Mat - Same State 1 - Meechl mod - D118] . Reported apparent KD of MS2 coat protein: 47.4 nM

Attribution: the supplement of paper PMC9170038
